Assay: Solubility in water/medium (shaking 24 hours, HPLC)
Settings: water, 37 °C, thermodynamic from solid
Metric: solubility at 24 h (µg/mL)
Answers are plain numbers, in µg/mL.

Exercise: Can you look up the measured solubility at 24 h of `C[C@]12CC[C@@H]3c4ccc(O)cc4CC[C@H]3[C@@H]1C[C@@H](O)[C@@H]2O` for me?
Key: 58.4

---

Answer each item with its documented Average API release d3-d21.
Experiment: in vitro release rates of estriol prodrugs from intravaginal rings
Format: physicochemical
Settings: ring, API loading 5.0 %, core polymer EVA28/2.5 (E3: EVA26/4.0), 37°C, days 3-21
One number for each entry, in µg/day.

Solved cases (3 shown):
[
  {
    "Compound": "CC(=O)Oc1ccc2c(c1)CCC1C2CC[C@@]2(C)C1C[C@@H](O)[C@@H]2O (stereo partly shown) [EC5104]",
    "Average API release d3-d21 / µg/day": 548.1
  },
  {
    "Compound": "C[C@]12CCC3c4ccc(O)cc4CCC3C1C[C@@H](O)[C@@H]2OC(=O)C1CC1 (stereo partly shown) [EC537]",
    "Average API release d3-d21 / µg/day": 1785.5
  },
  {
    "Compound": "C[C@]12CC[C@@H]3c4ccc(O)cc4CC[C@H]3[C@@H]1C[C@@H](O)[C@@H]2O [Example E3, Estriol]",
    "Average API release d3-d21 / µg/day": 119.4
  }
]

Please find the next compound below.
Exercise: Can you look up the measured Average API release d3-d21 of C[C@]12CCC3c4ccc(OC(=O)C5CC5)cc4CCC3C1C[C@@H](O)[C@@H]2O (stereo partly shown) [EC5105] for me?
Key: 567.3
